Taken from patent US20120270929A1.

- measurement-protocol: Plasma NEFA and 3-HB in C57BL/6 mice
- Assay type: in vivo, mouse
- experimental-context: Week 3, 50 mg/kg/week
Oligonucleotides are written 5' to 3', each unit as a sugar letter and its base; * is a phosphorothioate linkage, no mark a phosphodiester; rarer units and linkages stand in square brackets, end groups in braces. Plain capitals give the bases only. e = 2'-O-(2-methoxyethyl) (MOE); [5mC] = 5-methylcytosine; d = 2'-deoxy (DNA)
Here the recorded NEFA levels is given for each entry.
endpoint-name: NEFA levels (mEq/L)

construct-sequence	unit-info	observed-measurement
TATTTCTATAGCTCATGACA (antisense eT*eA*eT*eT*eT*d[5mC]*dT*dA*dT*dA*dG*d[5mC]*dT*d[5mC]*dA*eT*eG*eA*e[5mC]*eA) [ISIS 447144]	mEq/L	0.63
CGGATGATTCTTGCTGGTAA (antisense e[5mC]*eG*eG*eA*eT*dG*dA*dT*dT*d[5mC]*dT*dT*dG*d[5mC]*dT*eG*eG*eT*eA*eA) [ISIS 447114]	mEq/L	0.49
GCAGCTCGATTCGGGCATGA (antisense eG*e[5mC]*eA*eG*e[5mC]*dT*d[5mC]*dG*dA*dT*dT*d[5mC]*dG*dG*dG*e[5mC]*eA*eT*eG*eA) [ISIS 447118]	mEq/L	0.51
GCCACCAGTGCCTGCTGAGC (antisense eG*e[5mC]*e[5mC]*eA*e[5mC]*d[5mC]*dA*dG*dT*dG*d[5mC]*d[5mC]*dT*dG*d[5mC]*eT*eG*eA*eG*e[5mC]) [ISIS 447143]	mEq/L	0.72

###

- Tested on: murine TTC39B mRNA
- measurement-protocol: Antisense inhibition of murine TTC39B in mouse primary hepatocytes, single dose
- Format: cell-based
- experimental-context: 100 nM, cytofectin, ~24 h, vs untreated control; gapmers targeted to SEQ ID NO: 6
Oligonucleotides are written 5' to 3', each unit as a sugar letter and its base; * is a phosphorothioate linkage, no mark a phosphodiester; rarer units and linkages stand in square brackets, end groups in braces. Plain capitals give the bases only. e = 2'-O-(2-methoxyethyl) (MOE); [5mC] = 5-methylcytosine; d = 2'-deoxy (DNA)
Property: % inhibition of murine TTC39B mRNA; scope: individual sequences

construct-sequence	unit-info	% inhibition of murine TTC39B mRNA
TGAATGCTATTATTGGATCT (antisense eT*eG*eA*eA*eT*dG*d[5mC]*dT*dA*dT*dT*dA*dT*dT*dG*eG*eA*eT*e[5mC]*eT) [ISIS 447140]	%	66
AGATACAAGTCCCTTCTGCC (antisense eA*eG*eA*eT*eA*d[5mC]*dA*dA*dG*dT*d[5mC]*d[5mC]*d[5mC]*dT*dT*e[5mC]*eT*eG*e[5mC]*e[5mC]) [ISIS 447137]	%	50
GCCAATCTAAAAATGGCTCA (antisense eG*e[5mC]*e[5mC]*eA*eA*dT*d[5mC]*dT*dA*dA*dA*dA*dA*dT*dG*eG*e[5mC]*eT*e[5mC]*eA) [ISIS 447135]	%	67
GCAGCCATGGCCCTGGGTCA (antisense eG*e[5mC]*eA*eG*e[5mC]*d[5mC]*dA*dT*dG*dG*d[5mC]*d[5mC]*d[5mC]*dT*dG*eG*eG*eT*e[5mC]*eA) [ISIS 447141]	%	40
GGTGGAGTCTGGCCCTCAGC (antisense eG*eG*eT*eG*eG*dA*dG*dT*d[5mC]*dT*dG*dG*d[5mC]*d[5mC]*d[5mC]*eT*e[5mC]*eA*eG*e[5mC]) [ISIS 447142]	%	66
TTCTTACAAACATCCTAAGA (antisense eT*eT*e[5mC]*eT*eT*dA*d[5mC]*dA*dA*dA*d[5mC]*dA*dT*d[5mC]*d[5mC]*eT*eA*eA*eG*eA) [ISIS 447148]	%	54
AATGCCACCACCTTCAACCA (antisense eA*eA*eT*eG*e[5mC]*d[5mC]*dA*d[5mC]*d[5mC]*dA*d[5mC]*d[5mC]*dT*dT*d[5mC]*eA*eA*e[5mC]*e[5mC]*eA) [ISIS 447138]	%	65
TCGAAATGTTTCTTGAGCCT (antisense eT*e[5mC]*eG*eA*eA*dA*dT*dG*dT*dT*dT*d[5mC]*dT*dT*dG*eA*eG*e[5mC]*e[5mC]*eT) [ISIS 447119]	%	65
GGACTGCCTGCCATGGGTGC (antisense eG*eG*eA*e[5mC]*eT*dG*d[5mC]*d[5mC]*dT*dG*d[5mC]*d[5mC]*dA*dT*dG*eG*eG*eT*eG*e[5mC]) [ISIS 447146]	%	69
GACTTTTAATTCAAAGTCCT (antisense eG*eA*e[5mC]*eT*eT*dT*dT*dA*dA*dT*dT*d[5mC]*dA*dA*dA*eG*eT*e[5mC]*e[5mC]*eT) [ISIS 447153]	%	58
TCCAAGGCATCTTCAAAGAT (antisense eT*e[5mC]*e[5mC]*eA*eA*dG*dG*d[5mC]*dA*dT*d[5mC]*dT*dT*d[5mC]*dA*eA*eA*eG*eA*eT) [ISIS 447101]	%	36
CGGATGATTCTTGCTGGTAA (antisense e[5mC]*eG*eG*eA*eT*dG*dA*dT*dT*d[5mC]*dT*dT*dG*d[5mC]*dT*eG*eG*eT*eA*eA) [ISIS 447114]	%	73
TCCACCTTGGCTGATGAACC (antisense eT*e[5mC]*e[5mC]*eA*e[5mC]*d[5mC]*dT*dT*dG*dG*d[5mC]*dT*dG*dA*dT*eG*eA*eA*e[5mC]*e[5mC]) [ISIS 447104]	%	48
TCCACTCGGCTGCCCACGAG (antisense eT*e[5mC]*e[5mC]*eA*e[5mC]*dT*d[5mC]*dG*dG*d[5mC]*dT*dG*d[5mC]*d[5mC]*d[5mC]*eA*e[5mC]*eG*eA*eG) [ISIS 447100]	%	62
CCAGACAGACACTCAGACCA (antisense e[5mC]*e[5mC]*eA*eG*eA*d[5mC]*dA*dG*dA*d[5mC]*dA*d[5mC]*dT*d[5mC]*dA*eG*eA*e[5mC]*e[5mC]*eA) [ISIS 447149]	%	48
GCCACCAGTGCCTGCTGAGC (antisense eG*e[5mC]*e[5mC]*eA*e[5mC]*d[5mC]*dA*dG*dT*dG*d[5mC]*d[5mC]*dT*dG*d[5mC]*eT*eG*eA*eG*e[5mC]) [ISIS 447143]	%	74
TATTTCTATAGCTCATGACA (antisense eT*eA*eT*eT*eT*d[5mC]*dT*dA*dT*dA*dG*d[5mC]*dT*d[5mC]*dA*eT*eG*eA*e[5mC]*eA) [ISIS 447144]	%	69
GACTTTGAGATGGCACACAA (antisense eG*eA*e[5mC]*eT*eT*dT*dG*dA*dG*dA*dT*dG*dG*d[5mC]*dA*e[5mC]*eA*e[5mC]*eA*eA) [ISIS 447152]	%	60
CAGTAAAGTCTTGATTCTGC (antisense e[5mC]*eA*eG*eT*eA*dA*dA*dG*dT*d[5mC]*dT*dT*dG*dA*dT*eT*e[5mC]*eT*eG*e[5mC]) [ISIS 447126]	%	58
ACAGTATCTTGAACATGACA (antisense eA*e[5mC]*eA*eG*eT*dA*dT*d[5mC]*dT*dT*dG*dA*dA*d[5mC]*dA*eT*eG*eA*e[5mC]*eA) [ISIS 447147]	%	46
